# tested_on: TAK1/TAB1 (Homo sapiens, UniProt O43318)
# Sequence (Q15750 whole entry): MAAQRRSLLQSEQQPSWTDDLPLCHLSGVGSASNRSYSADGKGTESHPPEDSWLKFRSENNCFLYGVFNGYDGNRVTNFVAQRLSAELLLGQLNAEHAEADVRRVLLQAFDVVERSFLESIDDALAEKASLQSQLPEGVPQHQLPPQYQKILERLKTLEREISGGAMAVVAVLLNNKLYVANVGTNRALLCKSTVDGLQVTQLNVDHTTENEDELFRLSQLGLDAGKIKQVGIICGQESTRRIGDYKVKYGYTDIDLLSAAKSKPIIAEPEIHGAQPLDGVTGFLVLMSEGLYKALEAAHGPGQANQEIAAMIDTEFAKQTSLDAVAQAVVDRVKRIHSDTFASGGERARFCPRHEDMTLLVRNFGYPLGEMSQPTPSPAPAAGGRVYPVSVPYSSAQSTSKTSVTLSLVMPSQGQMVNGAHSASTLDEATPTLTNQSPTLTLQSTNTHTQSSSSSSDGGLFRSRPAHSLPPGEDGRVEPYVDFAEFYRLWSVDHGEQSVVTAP
# Sequence (O43318 whole entry): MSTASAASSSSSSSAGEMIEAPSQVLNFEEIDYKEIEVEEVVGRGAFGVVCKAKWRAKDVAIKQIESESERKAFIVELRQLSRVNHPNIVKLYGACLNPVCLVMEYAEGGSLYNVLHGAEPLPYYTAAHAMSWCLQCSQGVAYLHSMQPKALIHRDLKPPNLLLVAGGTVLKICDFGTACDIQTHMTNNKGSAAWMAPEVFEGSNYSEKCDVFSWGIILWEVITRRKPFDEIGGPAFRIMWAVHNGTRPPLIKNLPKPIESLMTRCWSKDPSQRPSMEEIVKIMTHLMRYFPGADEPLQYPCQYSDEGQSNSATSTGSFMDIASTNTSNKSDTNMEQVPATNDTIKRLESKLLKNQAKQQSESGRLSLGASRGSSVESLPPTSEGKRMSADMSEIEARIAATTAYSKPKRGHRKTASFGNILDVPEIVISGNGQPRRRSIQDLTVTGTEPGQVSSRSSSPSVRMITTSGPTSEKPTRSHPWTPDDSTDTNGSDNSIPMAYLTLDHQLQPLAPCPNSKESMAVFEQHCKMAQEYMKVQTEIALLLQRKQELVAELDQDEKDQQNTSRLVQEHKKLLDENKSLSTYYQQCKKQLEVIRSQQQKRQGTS
# procedure_text: Inhibition of TAK1-TAB1 (unknown origin) by alphascreen assay in presence of ATP
measure: IC50 (nM)

>>> value_observed("Cc1ccc(-c2cnc(N)c3oc(-c4csc5cnccc45)cc23)s1")
4600
>>> value_observed("Cn1ccc(-c2cnc(N)c3oc(-c4csc5cnccc45)cc23)c1")
4900
>>> value_observed("Nc1ncc(-c2cnn([C@H]3CC[C@H](O)CC3)c2)c2c(C(F)F)c(-c3cccc4nnsc34)oc12")
14
>>> value_observed("Nc1ncc(-c2cnn([C@H]3CC[C@H](O)CC3)c2)c2c(-c3cncs3)c(-c3cccc4nnsc34)oc12")
31
>>> value_observed("Cc1ncc(-c2cnc(N)c3oc(-c4csc5cnccc45)cc23)s1")
230
>>> value_observed("Nc1ncc(-c2cnn([C@H]3CC[C@H](O)CC3)c2)c2c(CF)c(-c3cccc4nnsc34)oc12")
17
>>> value_observed("Nc1ncc(-c2ccccc2)c2cc(-c3csc4cnccc34)oc12")
3200
>>> value_observed("Nc1ncc(-c2cscn2)c2cc(-c3csc4cnccc34)oc12")
1400
>>> value_observed("Nc1ncc(C2=CCNCC2)c2cc(-c3csc4cnccc34)oc12")
23600

* * *

# procedure_text: Volume of distribution at steady state in mouse at 2 mg/kg, iv
# Assay type: ADME, organism-based
# Set-up: dose 2 mg/kg, route intravenous
# experimental_setup: in vivo, read-out: Vdss
Kind request: treat 2 L/kg as inclusive, so Vd at 2 L/kg or higher is condition met, anything lower is condition not met.

>>> category_label("Nc1ncc(-c2cnn([C@H]3CC[C@H](O)CC3)c2)c2c(Cl)c(-c3cccc4nnsc34)oc12")
"condition met"
>>> category_label("Nc1ncc(-c2cnn([C@H]3CC[C@H](O)CC3)c2)c2cc(-c3cccc4nnsc34)oc12")
"condition met"
>>> category_label("Nc1ncc(-c2cnn([C@H]3CC[C@H](O)CC3)c2)c2cc(-c3cccc4cnsc34)oc12")
"condition met"
>>> category_label("CC(=O)N1CCC(n2cc(-c3cnc(N)c4oc(-c5csc6cnccc56)cc34)cn2)CC1")
"condition met"
>>> category_label("Nc1ncc(-c2cnn([C@H]3CC[C@H](O)CC3)c2)c2c(C(F)F)c(-c3cccc4nnsc34)oc12")
"condition not met"

* * *

# tested_on: TAK1/TAB1 (Homo sapiens)
# procedure_text: Inhibition of TAK1-TAB1 (unknown origin) by alphascreen assay in presence of ATP
measure: IC50

>>> value_observed("Nc1ncc(-c2ccsc2)c2cc(-c3csc4cnccc34)oc12")
"2200 nM"
>>> value_observed("Cn1cc(-c2cnc(N)c3oc(-c4csc5cnccc45)cc23)c(C#N)n1")
"22800 nM"
>>> value_observed("N#Cc1c(-c2cccc3nnsc23)oc2c(N)ncc(-c3cnn([C@H]4CC[C@H](O)CC4)c3)c12")
"160 nM"
>>> value_observed("COc1nn(C)cc1-c1cnc(N)c2oc(-c3csc4cnccc34)cc12")
"600 nM"
>>> value_observed("Cn1cc(-c2cnc(N)c3oc(-c4csc5cnccc45)cc23)cn1")
"150 nM"

* * *

# tested_on: Vascular endothelial growth factor receptor 2 (Homo sapiens)
# Sequence (P35968 whole entry): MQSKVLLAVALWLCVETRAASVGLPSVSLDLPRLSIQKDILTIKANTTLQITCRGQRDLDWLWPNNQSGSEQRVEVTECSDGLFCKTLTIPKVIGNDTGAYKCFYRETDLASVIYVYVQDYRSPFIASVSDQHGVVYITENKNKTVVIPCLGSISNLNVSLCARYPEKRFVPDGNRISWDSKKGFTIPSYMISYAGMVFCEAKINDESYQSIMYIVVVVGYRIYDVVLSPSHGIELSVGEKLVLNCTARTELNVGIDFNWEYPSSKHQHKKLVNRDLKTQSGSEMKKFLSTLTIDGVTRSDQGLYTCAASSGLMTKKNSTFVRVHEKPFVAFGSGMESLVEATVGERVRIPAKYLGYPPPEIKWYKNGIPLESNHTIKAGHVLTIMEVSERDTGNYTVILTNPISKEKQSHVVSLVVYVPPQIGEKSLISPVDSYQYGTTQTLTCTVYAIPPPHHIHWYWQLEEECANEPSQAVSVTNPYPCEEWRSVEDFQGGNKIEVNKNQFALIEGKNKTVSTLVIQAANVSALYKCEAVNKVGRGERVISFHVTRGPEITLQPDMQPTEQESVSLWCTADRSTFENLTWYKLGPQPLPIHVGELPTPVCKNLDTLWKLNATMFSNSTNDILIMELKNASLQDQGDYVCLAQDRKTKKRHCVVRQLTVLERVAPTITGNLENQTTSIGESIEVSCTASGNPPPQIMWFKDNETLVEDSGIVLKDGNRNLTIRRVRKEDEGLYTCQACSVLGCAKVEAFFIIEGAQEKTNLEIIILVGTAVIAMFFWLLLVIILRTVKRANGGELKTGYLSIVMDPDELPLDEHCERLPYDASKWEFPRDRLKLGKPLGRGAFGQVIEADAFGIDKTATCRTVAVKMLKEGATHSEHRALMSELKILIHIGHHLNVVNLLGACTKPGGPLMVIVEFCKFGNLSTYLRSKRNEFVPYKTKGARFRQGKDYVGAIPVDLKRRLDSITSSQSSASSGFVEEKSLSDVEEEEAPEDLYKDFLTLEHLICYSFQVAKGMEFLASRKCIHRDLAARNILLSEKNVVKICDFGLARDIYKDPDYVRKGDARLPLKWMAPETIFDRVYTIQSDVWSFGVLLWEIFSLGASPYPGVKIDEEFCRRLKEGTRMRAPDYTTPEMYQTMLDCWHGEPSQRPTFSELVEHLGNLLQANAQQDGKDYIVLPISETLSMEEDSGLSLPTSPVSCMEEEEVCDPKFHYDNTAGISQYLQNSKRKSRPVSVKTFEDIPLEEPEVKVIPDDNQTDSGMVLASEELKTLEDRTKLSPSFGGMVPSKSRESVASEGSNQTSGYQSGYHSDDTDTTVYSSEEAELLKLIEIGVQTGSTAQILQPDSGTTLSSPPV
# procedure_text: Inhibition of KDR autophosphorylation overexpressed in VEGF-stimulated human HEK293 cells
IC50 strictly less than 3 µM = true (1). Otherwise false (0).

>>> category_label("Nc1ncc(-c2cnn([C@H]3CC[C@H](O)CC3)c2)c2c(Cl)c(-c3cccc4nnsc34)oc12")
"false (0)"
>>> category_label("Nc1ncc(-c2cnn([C@H]3CC[C@H](O)CC3)c2)c2cc(-c3cccc4nnsc34)oc12")
"true (1)"
>>> category_label("Nc1ncc(-c2cnn([C@H]3CC[C@H](O)CC3)c2)c2c(C(F)F)c(-c3cccc4nnsc34)oc12")
"false (0)"
>>> category_label("Cc1c(-c2cnc(N)c3oc(-c4csc5cnccc45)cc23)cnn1C")
"false (0)"
>>> category_label("Cc1nn(C)cc1-c1cnc(N)c2oc(-c3csc4cnccc34)cc12")
"false (0)"
>>> category_label("Nc1ncc(-c2cnn([C@H]3CC[C@H](O)CC3)c2)c2c(CF)c(-c3cccc4nnsc34)oc12")
"false (0)"
>>> category_label("COc1nn(C)cc1-c1cnc(N)c2oc(-c3csc4cnccc34)cc12")
"false (0)"
>>> category_label("N#Cc1c(-c2cccc3nnsc23)oc2c(N)ncc(-c3cnn([C@H]4CC[C@H](O)CC4)c3)c12")
"false (0)"
>>> category_label("Nc1ncc(-c2cnn([C@H]3CC[C@H](O)CC3)c2)c2c(-c3cccnc3)c(-c3cccc4nnsc34)oc12")
"false (0)"
>>> category_label("Cn1cc(-c2cnc(N)c3oc(-c4csc5cnccc45)cc23)cn1")
"false (0)"
>>> category_label("Nc1ncc(-c2cnn([C@H]3CC[C@H](O)CC3)c2)c2c(-c3cncs3)c(-c3cccc4nnsc34)oc12")
"true (1)"
